Some molecules, each annotated with its measured normalised cell number.
- assay_info: EMT-state selective cytotoxicity in co-culture – imaging, PC-3E GFP, TEM4-18 mCherry, primary screen (AID 1345086);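 further: cells exposed to compound for 72 h before imaging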
- condition_set: PC-3E GFP / TEM4-18 mCherry co-culture, imaging cell counts; measured here: epithelial PC-3E GFP cell survival; at 1 µM
Please give the numeric answer without any surrounding text.

                                   molecule              value_kind  experimental_result
0  CN(C)c1ccc(C(=C2C=CC(=[N+](C)C)C=C2)c2ccc(N(C)C)cc2)cc1  normalised cell number                 0.14
1  Cc1cccc(C)c1NC(=O)C(C)N (centres undefined)  normalised cell number                 1.32

Input line: Could you please provide reported normalised cell number for "CC(=O)OC/C=C(C)/C=C/C=C(C)/C=C/C1=C(C)CCCC1(C)C" ? Thanks!
Output line: 1

Input line: Supply measured normalised cell number of C1CCC(C(CC2CCCCN2)C2CCCCC2)CC1 (centres undefined) in your reply.
Output line: 1.13

Input line: Provide measured normalised cell number value, entry: "CCCCN(CCCC)CCCOC(=O)c1ccc(N)cc1"
Output line: 1.04

Input line: Give reported normalised cell number value for "CCOc1ccc(NC(C)=O)cc1"
Output line: 1.07

Input line: Determine its reported normalised cell number: "NC(N)=NC(=O)Cc1c(Cl)cccc1Cl"
Output line: 1.04

Input line: State its normalised cell number: "O=C(O)P(=O)(O)O"
Output line: 1.21

Input line: Look up normalised cell number of "COc1ccc(CN(CCN(C)C)c2ccccn2)cc1" and report it.
Output line: 1.02

Input line: Input "CN1CCC(=C2c3ccccc3Sc3ccccc32)CC1" , output reported normalised cell number.
Output line: 1.03

Input line: Provide measured normalised cell number value, entry: NS(=O)(=O)c1cc2c(cc1Cl)NC(C1CC3C=CC1C3)NS2(=O)=O (centres undefined)
Output line: 0.95

Input line: Consider the molecule "C#CCN(C)Cc1ccccc1" and give its recorded normalised cell number.
Output line: 1.04

Input line: Give normalised cell number for the following molecule: "Cc1ccc2c(Cl)cc(Cl)c(O)c2n1"
Output line: 1.22

Input line: Complete the entry with normalised cell number for CCN1CCCC(OC(=O)C(c2ccccc2)c2ccccc2)C1 (centres undefined)
Output line: 0.93

Input line: Tell me normalised cell number reported for "O=C(Nc1ccc([N+](=O)[O-])cc1Cl)c1cc(Cl)ccc1O"
Output line: 0.36

Input line: Give reported normalised cell number value for "O=C(OCc1ccccc1)c1ccccc1"
Output line: 1.34

Input line: Query normalised cell number for CCC(C)n1ncn(-c2ccc(N3CCN(c4ccc(OC[C@H]5CO[C@](Cn6cncn6)(c6ccc(Cl)cc6Cl)O5)cc4)CC3)cc2)c1=O (some centres undefined)
Output line: 1.27

Input line: Report normalised cell number for CCCCN(CCCC)CCC(O)c1cc2c(Cl)cc(Cl)cc2c2cc(C(F)(F)F)ccc12 (centres undefined)
Output line: 1.03

###

- assay_info: growth inhibition, single agents and combos, ICB984, cell-based, cisplatin or BGB combos, synergistic combos for chromothripsis tumors (AID 1671451);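 further: cells exposed for 96 hours before readout; 0% = vehicle DMSO and 100% = killing by high DMSO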
- condition_set: ICB984 medulloblastoma cells, drug combinations, at 0.5 µM, stronger effect = higher value
Where inhibition equals or exceeds -20%, the correct label is criterion met; where it does not, the label is criterion not met.

>>> print(df.to_string())
                           molecular_string         class_name
0                      O=NN(CCCl)C(=O)NCCCl  criterion not met
1  Cc1nc2ccc(CN(C)c3ccc(C(=O)N[C@@H](CCC(=O)O)C(=O)O)s3)cc2c(=O)[nH]1  criterion not met
2       CCn1cc(C(=O)O)c(=O)c2cc3c(cc21)OCO3      criterion met
3                                  NC(=O)NO      criterion met
4                  Nc1nc(=S)c2[nH]cnc2[nH]1  criterion not met

Input line: Dear colleague, could you confirm whether "Nc1[nH]c(=O)ncc1F" has inhibition at or above -20%?
Output line: criterion not met

Input line: In plain terms: is recorded inhibition at least -20% for "O=C(O)CCCCCCCC(=O)O" ?
Output line: criterion not met
